Some molecules, each annotated with its measured pIC50.
Molecular target: ITPKb (Mus musculus)
Construct: murine ITPKb residues 640-942; MGSDKIHHHHHH (His6 tag from MH4 plasmid) (N); made in house; host or cells: Escherichia coli HK100
Sequence (B2RXC2 640-942): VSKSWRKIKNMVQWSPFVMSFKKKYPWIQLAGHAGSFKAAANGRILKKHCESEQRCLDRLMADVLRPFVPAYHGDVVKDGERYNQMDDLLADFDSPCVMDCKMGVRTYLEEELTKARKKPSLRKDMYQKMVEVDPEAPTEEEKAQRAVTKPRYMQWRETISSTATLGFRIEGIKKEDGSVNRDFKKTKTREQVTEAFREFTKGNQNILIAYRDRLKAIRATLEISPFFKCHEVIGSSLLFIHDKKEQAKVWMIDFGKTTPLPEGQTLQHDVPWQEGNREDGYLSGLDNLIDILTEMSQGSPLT
Experiment: Biochemical measurement of ITPKb activity (Kinase-Glo ATP depletion assay); inhibiting the phosphorylation of IP3 to IP4
Set-up: species or system murine
Conditions: Table 1; inhibiting the phosphorylation of IP3 to IP4; read-out: IC50
pIC50: −log10 of the molar value.

>  <MOLECULE>
C[C@@H]1CN(Cc2c[nH]nc2-c2cc(C(=O)O)co2)CCN1c1ccc(C(F)(F)F)cn1 [Example 52]

>  <SYSTEM_NAME>
ITPKb (Mus musculus)

>  <READOUT_RELATION>
=

>  <pIC50>
5.98

$$$$
>  <MOLECULE>
C[C@@H]1CN(Cc2c[nH]nc2-c2cc(C(=O)N[C@@H](C)CO)c[nH]2)CCN1c1ccc(C(F)(F)F)cn1 [Example 45]

>  <SYSTEM_NAME>
ITPKb (Mus musculus)

>  <READOUT_RELATION>
=

>  <pIC50>
8.22

$$$$
>  <MOLECULE>
Cc1nc(-c2n[nH]cc2CN2CCN(c3ccc(C(F)(F)F)cn3)[C@H](C)C2)[nH]c1C [Example 25]

>  <SYSTEM_NAME>
ITPKb (Mus musculus)

>  <READOUT_RELATION>
<

>  <pIC50>
5.00

$$$$
>  <MOLECULE>
C[C@@H]1CN(Cc2c[nH]nc2C2=CCN(C(=O)CCO)CC2)CCN1c1ccc(C(F)(F)F)cn1 [Example 54]

>  <SYSTEM_NAME>
ITPKb (Mus musculus)

>  <READOUT_RELATION>
=

>  <pIC50>
7.10

$$$$
